Consider the following compounds; for each one, report its Cytotoxicity IC10.
System: MDCK-OAT4 cells
Experiment: CellTiter-Glo luminescent cell viability assay in MDCK-OAT4 cells
Conditions: concentration that inhibits cell viability by 10%; MDCK-OAT4 cells, 20 min exposure

Supply Cytotoxicity IC10 value. Item: O=C1OC(c2ccc(O)c(S(=O)(=O)O)c2)(c2ccc(O)c(S(=O)(=O)O)c2)c2c(Br)c(Br)c(Br)c(Br)c21 [Bromosulfophthalein, reference compound]
> 100 µM

Indicate its recorded Cytotoxicity IC10; the compound in question is O=S(=O)(O)C(F)(F)C(F)(F)C(F)(F)C(F)(F)C(F)(F)C(F)(F)C(F)(F)C(F)(F)F [Perfluorooctanesulfonic acid]
> 100 µM

# return recorded Cytotoxicity IC10 for entry O=C(O)CSc1nnc(Br)n1-c1ccc(C2CC2)c2ccccc12 [Lesinurad, reference compound]
> 100 µM

Measured values drawn from paper PMC11324666 for this set.
